Here the recorded composite z-score is given for each entry.
Target: Dihydroorotate dehydrogenase (quinone), mitochondrial (Plasmodium falciparum (isolate 3D7)) (UniProt Q08210)
Sequence (Q08210 whole entry, looked up): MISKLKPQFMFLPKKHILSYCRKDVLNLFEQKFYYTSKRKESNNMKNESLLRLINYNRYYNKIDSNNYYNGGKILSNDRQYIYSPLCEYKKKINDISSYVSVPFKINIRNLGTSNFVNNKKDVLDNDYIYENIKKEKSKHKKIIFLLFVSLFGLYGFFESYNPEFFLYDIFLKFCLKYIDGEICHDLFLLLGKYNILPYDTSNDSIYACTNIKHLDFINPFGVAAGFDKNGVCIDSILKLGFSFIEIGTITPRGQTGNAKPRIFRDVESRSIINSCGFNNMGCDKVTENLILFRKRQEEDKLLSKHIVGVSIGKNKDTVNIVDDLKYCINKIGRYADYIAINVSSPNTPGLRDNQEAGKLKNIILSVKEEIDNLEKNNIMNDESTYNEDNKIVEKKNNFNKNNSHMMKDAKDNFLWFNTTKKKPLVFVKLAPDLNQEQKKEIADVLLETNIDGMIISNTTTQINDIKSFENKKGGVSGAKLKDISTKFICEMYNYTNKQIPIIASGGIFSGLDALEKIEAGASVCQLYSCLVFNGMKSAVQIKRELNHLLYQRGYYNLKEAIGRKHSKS
Experiment: PfDHODH enzyme inhibitors, primary screen, biochemical, C-terminal His tag, absorbance 600 nm (AID 1175);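 note: recombinant parasite enzyme with a five histidine tag at its C terminus; test concentration not given here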
Settings: DCIP absorbance 600 nm, higher = more signal, called active from +8 up or from −8 down
Activity calls are given as the source filed them.

CCOC(=O)C[C@H]1[C@H](OC(=O)c2ccccc2-c2ccccc2)[C@@H](NC(=O)c2ccc(-c3ccccc3)cc2)c2cc(OCCCO)ccc2N1C(=O)Cc1ccc(OC)cc1; -1.29 (inactive)
COC(=O)c1ccc(C#CC(NP(=O)(c2ccccc2)c2ccccc2)c2ccccc2)cc1 (centres undefined); -3.37 (inactive)
Cc1ccc([C@@H]2CC=C(C(=O)O)[C@H](c3ccccc3)N2S(=O)(=O)c2ccc(C)cc2)cc1; -0.527 (inactive)

Task: Reported composite z-score, compound O=C1OCCC=C[C@H]2OC34C=CCN(Cc5ccccc5)C(=O)[C@H]3N(CCO)C(=O)[C@@H]4C12 (some centres undefined) : ____
Output: -1.19 (inactive)

Task: Reported composite z-score, compound C[C@@H]1NC(=O)[C@H](Cc2ccccc2)NC(=O)[C@@]23C(=O)N[C@@H](Cc4ccccc4)C2[C@H](C)[C@@]2(C)O[C@H]2C3/C=C/C/C=C\CNC1=O (some centres undefined) : ____
Output: 0.398 (inactive)

Task: Reported composite z-score, compound O=C1O[C@@H](c2ccccc2)[C@@H](c2ccccc2)N2[C@@H](c3ccc(O)cc3)[C@]3(C(=O)Nc4ccc(C#CC5(O)CCCCCC5)cc43)[C@@H](C(=O)Nc3nc4ccccc4s3)[C@H]12 : ____
Output: -0.067 (inactive)
